Data origin: the supplement of paper PMC11061612

test system: JHH-4 (Hepatocellular Carcinoma); assay: combination Emax (second highest fraction inhibited in the dose matrix, 72 h); higher = more inhibition; extreme values may be limits of the assay
OUTCOME MEASURE: combination Emax
Enter a number only.

Known combination Emax results, listed for orientation:
Cc1cc2ncnn2cc1Nc1ncc2c(n1)n(C1CCOCC1)c(=O)n2C [AZD7648] + C[C@@H]1COCCN1C2=NC(=NC(=C2)C3(CC3)[S@](=N)(=O)C)C4=C5C=CNC5=NC=C4 [AZD6738] (first compound max 10 µM, 7x7, partner max 10 µM)
0.276
CN(CCO)CC[C@H](CSc1ccccc1)Nc1ccc(S(=O)(=O)NC(=O)c2ccc(N3CCC([C@@H](O)c4ccccc4-c4ccc(Cl)cc4)CC3)cc2)cc1S(=O)(=O)C(F)(F)F [AZD4320] + Cn1cnc2c(F)c(Nc3ccc(Br)cc3Cl)c(C(=O)NOCCO)cc21 [Selumetinib] (first compound max 1 µM, 7x7, partner max 3 µM)
0.326

// next entry
Please give the measured combination Emax for this compound: COc1nnc2ccc(N3CCC(c4ccc(OCCN5CCN(C)C(=O)[C@H]5C)cc4)CC3)nn12 [AZD5153] + C=CCn1c(=O)c2cnc(Nc3ccc(N4CCN(C)CC4)cc3)nc2n1-c1cccc(C(C)(C)O)n1 [AZD1775] (first compound max 1 µM, partner max 1 µM)
0.56
